Biological target: Cif (Pseudomonas aeruginosa (strain UCBPP-PA14), UniProt A0A0H2ZD27)
Sequence (A0A0H2ZD27 25-319 limits assumed): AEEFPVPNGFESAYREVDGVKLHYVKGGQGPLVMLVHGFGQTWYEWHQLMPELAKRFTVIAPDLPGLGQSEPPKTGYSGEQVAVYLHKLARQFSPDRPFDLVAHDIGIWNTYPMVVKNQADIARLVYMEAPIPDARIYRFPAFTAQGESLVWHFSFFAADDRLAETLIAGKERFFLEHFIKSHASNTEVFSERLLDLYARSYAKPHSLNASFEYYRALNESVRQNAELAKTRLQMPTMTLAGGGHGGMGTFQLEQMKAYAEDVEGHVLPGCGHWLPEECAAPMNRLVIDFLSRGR
Assay: Secondary screen (sextuplicate) with fluorogenic substrate CMNGC;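 further: purified enzyme assay in 96-well plates, 200 µL volume, fluorescence recorded each minute across a 60 min reaction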
Type: biochemical
Details: read-out: % Inhibition, plate 2
readout-type: inhibition at 10 µM (%)
Write the number in % without appending the unit.

// known answers, use as guide
Cc1cccc(Nc2ccccc2C(=O)O)c1C [Mefenamic acid] = 24
CO[C@@]1(NC(=O)Cc2cccs2)C(=O)N2C(C(=O)O)=C(COC(N)=O)CS[C@@H]21 [Cefoxitin sodium] = 16

Attention now turns to another entry.
Task item: Look at this compound and give its reported inhibition at 10 µM. Cc1c(Nc2ncccc2C(=O)O)cccc1C(F)(F)F [Flunixin meglumine]
Reply: 15
